Data origin, for the record: ChEMBL document CHEMBL3885881

- Organism: Rattus norvegicus
- assay comment: DrugMatrix - Regimen: Daily Repeat
- Format: toxicity, organism-based, Sprague-Dawley
- Set-up: regimen Daily Repeat, gender Male, age 6-8 weeks
- assay conditions: in vivo, po, 0 mg/kg, 120 h, tissue Blood, route oral GAVAGE, dose level Control, time 5 day, vehicle 100 % WATER
Listed below: ABSOLUTE SEGMENTED NEUTROPHIL values for each entry.

{"molecule": "CCOC(N)=O", "ABSOLUTE SEGMENTED NEUTROPHIL": "1581.67 CELLS/uL"}
{"molecule": "CC(C)(C)NC[C@H](O)COc1nsnc1N1CCOCC1", "ABSOLUTE SEGMENTED NEUTROPHIL": "503 CELLS/uL"}
{"molecule": "CCCc1nn(C)c2c(=O)[nH]c(-c3cc(S(=O)(=O)N4CCN(C)CC4)ccc3OCC)nc12", "ABSOLUTE SEGMENTED NEUTROPHIL": "762.83 CELLS/uL"}
{"molecule": "CC[C@H]1OC(=O)[C@H](C)[C@@H](O[C@H]2C[C@@](C)(OC)[C@@H](O)[C@H](C)O2)[C@H](C)[C@@H](O[C@@H]2O[C@H](C)C[C@H](N(C)C)[C@H]2O)[C@](C)(OC)C[C@@H](C)C(=O)[C@H](C)[C@@H](O)[C@]1(C)O", "ABSOLUTE SEGMENTED NEUTROPHIL": "435.17 CELLS/uL"}
{"molecule": "O=C(O)c1cccnc1", "ABSOLUTE SEGMENTED NEUTROPHIL": "1187.83 CELLS/uL"}
{"molecule": "Nc1ccc(S(=O)(=O)Nc2nccs2)cc1", "ABSOLUTE SEGMENTED NEUTROPHIL": "503 CELLS/uL"}
{"molecule": "CC[C@H]1OC(=O)[C@H](C)[C@@H](O[C@H]2C[C@@](C)(OC)[C@@H](O)[C@H](C)O2)[C@H](C)[C@@H](O[C@@H]2O[C@H](C)C[C@H](N(C)C)[C@H]2O)[C@](C)(O)C[C@@H](C)CN(C)[C@H](C)[C@@H](O)[C@]1(C)O", "ABSOLUTE SEGMENTED NEUTROPHIL": "572.5 CELLS/uL"}
{"molecule": "CNS(=O)(=O)Cc1ccc2[nH]cc(CCN(C)C)c2c1", "ABSOLUTE SEGMENTED NEUTROPHIL": "674.83 CELLS/uL"}
{"molecule": "Cc1c(N(C)CS(=O)(=O)[O-])c(=O)n(-c2ccccc2)n1C.[Na+] [DIPYRONE SODIUM]", "ABSOLUTE SEGMENTED NEUTROPHIL": "666.5 CELLS/uL"}
{"molecule": "O=P1(N(CCCl)CCCl)NCCCO1 (centres undefined) [CYCLOPHOSPHAMIDE ANHYDROUS]", "ABSOLUTE SEGMENTED NEUTROPHIL": "725.5 CELLS/uL"}
{"molecule": "CCN(CC)CC#CCOC(=O)C(O)(c1ccccc1)C1CCCCC1 (centres undefined)", "ABSOLUTE SEGMENTED NEUTROPHIL": "2102.33 CELLS/uL"}
{"molecule": "CN1C2CCCC1CC(NC(=O)c1nn(C)c3ccccc13)C2 (centres undefined)", "ABSOLUTE SEGMENTED NEUTROPHIL": "503 CELLS/uL"}
{"molecule": "OCCO", "ABSOLUTE SEGMENTED NEUTROPHIL": "762.83 CELLS/uL"}
{"molecule": "CCCCCCCCCCCCCCCC[n+]1ccccc1.[Br-]", "ABSOLUTE SEGMENTED NEUTROPHIL": "896.5 CELLS/uL"}

---

Listed below: ALANINE AMINOTRANSFERASE values for each entry.
- Organism: Rattus norvegicus
- assay comment: DrugMatrix - Regimen: Daily Repeat
- Assay type: toxicity, organism-based, Sprague-Dawley
- Parameters: regimen Daily Repeat, gender Male, age 6-8 weeks
- assay conditions: in vivo, po, 1500 mg/kg, 120 h, tissue Plasma, route oral GAVAGE, dose level High, time 5 day, vehicle .5 % CMC
readout kind: ALANINE AMINOTRANSFERASE (u/L)

{"compound": "CC(C)(Sc1cc(C(C)(C)C)c(O)c(C(C)(C)C)c1)Sc1cc(C(C)(C)C)c(O)c(C(C)(C)C)c1", "readout kind": "ALANINE AMINOTRANSFERASE", "reading": 47.67}
{"compound": "Nc1nc2c(c(=O)[nH]1)N(C=O)C(CNc1ccc(C(=O)N[C@@H](CCC(=O)O)C(=O)O)cc1)CN2 (stereo not given in full)", "readout kind": "ALANINE AMINOTRANSFERASE", "reading": 56.67}
{"compound": "C[C@@H](O)[C@H]1C(=O)N2C(C(=O)O)=C(S[C@@H]3CN[C@H](C(=O)N(C)C)C3)[C@H](C)[C@H]12", "readout kind": "ALANINE AMINOTRANSFERASE", "reading": 52.33}
{"compound": "O=c1cc(-c2ccccc2)oc2ccc3ccccc3c12", "readout kind": "ALANINE AMINOTRANSFERASE", "reading": 37.67}
{"compound": "CCOC(=O)[C@H](CCc1ccccc1)N[C@@H](C)C(=O)N1CCC[C@H]1C(=O)O", "readout kind": "ALANINE AMINOTRANSFERASE", "reading": 39.33}

---

- Organism: Rattus norvegicus
- assay comment: DrugMatrix - Regimen: Daily Repeat
- Format: toxicity, organism-based, Sprague-Dawley
- Parameters: regimen Daily Repeat, gender Male, age 6-8 weeks
- assay conditions: in vivo, po, 0 mg/kg, 120 h, tissue Plasma, route oral GAVAGE, dose level Control, time 5 day, vehicle 100 % WATER
readout kind: SODIUM (MEQ/L)

{"molecule": "OCCO", "readout kind": "SODIUM", "reading": 144.57}
{"molecule": "Nc1ccc(S(=O)(=O)Nc2ncccn2)cc1", "readout kind": "SODIUM", "reading": 148.17}
{"molecule": "CC(C)(C)NC[C@H](O)COc1nsnc1N1CCOCC1", "readout kind": "SODIUM", "reading": 145.35}
{"molecule": "CCN(CC)CC#CCOC(=O)C(O)(c1ccccc1)C1CCCCC1 (configuration not stated)", "readout kind": "SODIUM", "reading": 141.88}
{"molecule": "Cc1c(N(C)CS(=O)(=O)[O-])c(=O)n(-c2ccccc2)n1C.[Na+] [DIPYRONE SODIUM]", "readout kind": "SODIUM", "reading": 143.85}
{"molecule": "CC[C@H]1OC(=O)[C@H](C)[C@@H](O[C@H]2C[C@@](C)(OC)[C@@H](O)[C@H](C)O2)[C@H](C)[C@@H](O[C@@H]2O[C@H](C)C[C@H](N(C)C)[C@H]2O)[C@](C)(OC)C[C@@H](C)C(=O)[C@H](C)[C@@H](O)[C@]1(C)O", "readout kind": "SODIUM", "reading": 142.68}
{"molecule": "CC[C@H]1OC(=O)[C@H](C)[C@@H](O[C@H]2C[C@@](C)(OC)[C@@H](O)[C@H](C)O2)[C@H](C)[C@@H](O[C@@H]2O[C@H](C)C[C@H](N(C)C)[C@H]2O)[C@](C)(O)C[C@@H](C)CN(C)[C@H](C)[C@@H](O)[C@]1(C)O", "readout kind": "SODIUM", "reading": 141.85}

---

- Species on record: Rattus norvegicus
- assay comment: DrugMatrix - Regimen: Daily Repeat
- Format: toxicity, organism-based, Sprague-Dawley
- Set-up: regimen Daily Repeat, gender Male, age 6-8 weeks
- assay conditions: in vivo, po, 0 mg/kg, 72 h, tissue Blood, route oral GAVAGE, dose level Control, time 3 day, vehicle 100 % WATER
Listed below: ERYTHROCYTE COUNT values for each entry.

{"compound": "O=C(O)c1cc(=O)c2c(OCC(O)COc3cccc4oc(C(=O)O)cc(=O)c34)cccc2o1", "ERYTHROCYTE COUNT": "5.88 x10E6/uL"}
{"compound": "CC[C@H]1OC(=O)[C@H](C)[C@@H](O[C@H]2C[C@@](C)(OC)[C@@H](O)[C@H](C)O2)[C@H](C)[C@@H](O[C@@H]2O[C@H](C)C[C@H](N(C)C)[C@H]2O)[C@](C)(OC)C[C@@H](C)C(=O)[C@H](C)[C@@H](O)[C@]1(C)O", "ERYTHROCYTE COUNT": "5.56 x10E6/uL"}
{"compound": "CC(C)(C)NC[C@H](O)COc1nsnc1N1CCOCC1", "ERYTHROCYTE COUNT": "5.49 x10E6/uL"}
{"compound": "CCN[C@@H](C)Cc1cccc(C(F)(F)F)c1", "ERYTHROCYTE COUNT": "5.8 x10E6/uL"}
{"compound": "O=C(O)c1cccnc1", "ERYTHROCYTE COUNT": "5.16 x10E6/uL"}
{"compound": "CCCc1nn(C)c2c(=O)[nH]c(-c3cc(S(=O)(=O)N4CCN(C)CC4)ccc3OCC)nc12", "ERYTHROCYTE COUNT": "5.35 x10E6/uL"}
{"compound": "Cc1c(N(C)CS(=O)(=O)[O-])c(=O)n(-c2ccccc2)n1C.[Na+] [DIPYRONE SODIUM]", "ERYTHROCYTE COUNT": "5.85 x10E6/uL"}
{"compound": "CCN(CC)CC#CCOC(=O)C(O)(c1ccccc1)C1CCCCC1 (stereo not drawn)", "ERYTHROCYTE COUNT": "5.81 x10E6/uL"}
